# assay.procedure: Vasopressin concentration in blood samples (HPLC-MS/MS) after tibial IO or IV administration in a hypovolemic cardiac arrest model
# Format: in vivo, Yorkshire swine
# study.conditions: Yorkshire, pig, serum; tibial IO push, 40 units, during CPR; male swine 60-80 kg, 31% blood volume hemorrhage, ventricular fibrillation; femoral artery samples 0.5-4 min; HPLC-MS/MS; mean ± standard deviation, n=7
property.name: Cmax (ng/mL)
Give bare numbers, in ng/mL.

Sample `NC(=O)CC[C@@H]1NC(=O)[C@H](Cc2ccccc2)NC(=O)[C@H](Cc2ccc(O)cc2)NC(=O)[C@@H](N)CSSC[C@@H](C(=O)N2CCC[C@H]2C(=O)N[C@@H](CCCN=C(N)N)C(=O)NCC(N)=O)NC(=O)[C@H](CC(N)=O)NC1=O` — what was its Cmax? 58.7
